Biological target: T1, GDF-11 (UniProt O95390 299-407)
T1 sequence (looked up): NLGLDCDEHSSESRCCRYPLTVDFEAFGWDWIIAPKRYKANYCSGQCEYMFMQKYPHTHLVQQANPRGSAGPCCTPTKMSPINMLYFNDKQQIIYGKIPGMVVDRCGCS
Experiment: cell-based or functional assay
# IC50, SBE-luciferase reporter in HEK293 cells per record follows
Please respond with the number in µg/mL and leave the unit unwritten.

Example entries begin here.
INSERT INTO measurements (binder, value_observed) VALUES
  ('ActRIIA-A1 (SEQ ID NO: 104) chimera-Fc protein (Fc fusion, Tested as chimera-Fc protein; not shown: linker (if any) and Fc domain) GRGEAETRECLFFNANWEKDRTNQTGVEPCYGDKDKRRHCFATWKNISGSIEIVKQGCWLDDINCYDRTDCVEKKDSPEVYFCCCEGNMCNEKFSYFPEMEVTQPTS', 0.24),
  ('ActRIIA-B4 (SEQ ID NO: 98) chimera-Fc protein (Fc fusion, Tested as chimera-Fc protein; not shown: linker (if any) and Fc domain) GAILGRSETQECLFFNANWEKDRTNQTGVEPCYGDKDKRRHCFATWKNISGTIELVKKGCWLDDINCYDRTDCVEKKDSPEVYFCCCEGNMCNEKFSYFPEMEVTQPTS', 0.22);

Consider the record given below.
State the recorded IC50, SBE-luciferase reporter in HEK293 cells for this entry: ActRIIA-A6 (SEQ ID NO: 108) chimera-Fc protein (Fc fusion, Tested as chimera-Fc protein; not shown: linker (if any) and Fc domain) GAILGRSETQECLFFNANWEKDRTNQTGVEPCYGDKDKRRHCFATWKNISGSIEIVKQGCWLDDINCYDRTDCVEKEENPQVYFCCCEGNMCNEKFSYFPEMEVTQPTS
0.077

Reference source for all entries: patent US20250270287A1
